These entries and their values trace back to patent US4927919A.

# assay-comment: Acute toxicity (LD50, single intravenous administration)
# Parameters: species or system day mice
# assay-conditions: mouse, in vivo, mice, single i.v., Preparation Example 6
Items are presented alongside their recorded LD50.

{"compound": "COC1C(N)C(C)OC(OC2C(Oc3cccc4c(OC(=O)C5CC5C)c5c(=O)oc6ccc(C)c7c(=O)oc(c34)c5c67)OC(C)C3OC(c4ccccc4)OC32)C1O (stereo not shown)", "LD50": "≥ 40 mg/kg"}
{"compound": "CCOCCC(=O)Oc1c2cccc(OC3OC(C)C4OC(c5ccccc5)OC4C3OC3OC(C)C(N)C(OC)C3O)c2c2oc(=O)c3c(C)ccc4oc(=O)c1c2c43 (stereo not shown)", "LD50": "≥ 40 mg/kg"}
{"compound": "COc1cccc(C(=O)Oc2c3cccc(OC4OC(C)C5OC(c6ccccc6)OC5C4OC4OC(C)C(N)C(OC)C4O)c3c3oc(=O)c4c(C)ccc5oc(=O)c2c3c54)c1 (stereo not shown)", "LD50": "≥ 40 mg/kg"}
{"compound": "COC1C(N)C(C)OC(OC2C(Oc3cccc4c(OC(=O)CCNC(=O)c5ccccc5)c5c(=O)oc6ccc(C)c7c(=O)oc(c34)c5c67)OC(C)C3OC(c4cccc(F)c4)OC32)C1O (stereo not shown)", "LD50": "≥ 80 mg/kg"}
